test system: MEIS1 gene expression; assay: Inhibition of MEIS1 gene expression in human tumor cells (qRT-PCR), OCI-AML3; assay type: cell-based; settings: OCI-AML-3, OCI-AML3 (carrying NPM1c), 48 hours of incubation, relative MEIS1 gene expression vs GAPDH
endpoint_label: EC50 (µM)

>  <compound>
CCN1CCN(CCC[C@H](C(C)C)N2CC(c3cc(-c4ccc(F)cc4C(=O)N4CCOC[C@H]4C)c4c(F)nc(C)n4c3)C2)CC1 [Example 277]

>  <endpoint_label>
EC50

>  <quantity_unit>
µM

>  <val>
0.012

$$$$
>  <compound>
CCN(C(=O)c1cc(F)ccc1-c1cc(C2CN([C@H](CCCN3CCN(CCO)CC3)C(C)C)C2)cn2c(C)ncc12)C(C)C [Example 398]

>  <endpoint_label>
EC50

>  <quantity_unit>
µM

>  <val>
0.013

$$$$
>  <compound>
CCN(C(=O)c1cc(F)ccc1-c1cc(C2CN([C@H](CCCN3CCN(C)CC3)C(C)C)C2)cn2c(C)ncc12)C(C)C [Example 310-2]

>  <endpoint_label>
EC50

>  <quantity_unit>
µM

>  <val>
0.012

$$$$
>  <compound>
COC1CCN(CCC[C@H](C(C)C)N2CC(c3cc(-c4ccc(F)cc4C(=O)N4CCOC[C@H]4C)c4c(F)nc(C)n4c3)C2)CC1 [Example 204]

>  <endpoint_label>
EC50

>  <quantity_unit>
µM

>  <val>
0.013

$$$$
>  <compound>
Cc1nc(F)c2c(-c3ccc(F)cc3C(=O)N3CCOC[C@H]3C)cc(C3CN([C@H](CN4CCN(C)CC4)C(C)C)C3)cn12 [Example 368-2]

>  <endpoint_label>
EC50

>  <quantity_unit>
µM

>  <val>
0.017

$$$$
>  <compound>
Cc1ncc2c(-c3ccc(F)cc3C(=O)N3CCOC[C@H]3C)cc(C3CN([C@H](CCCN4CCN(C)CC4)C(C)C)C3)cn12 [Example 323-2]

>  <endpoint_label>
EC50

>  <quantity_unit>
µM

>  <val>
0.017

$$$$

----------
tested on: MEIS1 gene expression; assay: Inhibition of MEIS1 gene expression in human tumor cells (qRT-PCR), OCI-AML3; format: cell-based; settings: OCI-AML-3, OCI-AML3 (carrying NPM1c), 48 hours of incubation, relative MEIS1 gene expression vs GAPDH
endpoint_label: EC50 (nM)

>  <compound>
Cc1nc(F)c2c(-c3ccc(F)cc3C(=O)N3CCOC[C@H]3C)cc(C3CN([C@H](CCCN4CCC(F)CC4)C(C)C)C3)cn12 [Example 314]

>  <quantity_unit>
nM

>  <EC50>
8.9

$$$$
>  <compound>
CC(=O)N1CCC([C@H](C)N2CC(c3cc(-c4ccc(F)cc4C(=O)N4CCOC[C@H]4C)c4c(F)nc(C)n4c3)C2)CC1 [Example 257-2]

>  <quantity_unit>
nM

>  <EC50>
33

$$$$
>  <compound>
CCN(C(=O)c1cc(F)ccc1-c1cc(C2CN([C@H](CN3CCN(CCO)CC3)C(C)C)C2)cn2c(C)ncc12)C(C)C [Example 431]

>  <quantity_unit>
nM

>  <EC50>
33

$$$$

[P] CCN(C(=O)c1cc(F)ccc1-c1cc(C2CN([C@H](CCCN3C[C@H]4C[C@@H]3CO4)C(C)C)C2)cn2c(C)ncc12)C(C)C [Example 379]
[Q] Cc1nc(F)c2c(-c3ccc(F)cc3C(=O)N3CCOC[C@H]3C)cc(C3CN([C@H](CO[C@H]4CCCN(C)C4)C(C)C)C3)cn12 [Example 321-2]
Query: EC50 comparison. Which is larger, P or Q ? State the label of the item chosen.
Result: Q
(Q: 32 nM, P: 7.5 nM)

[A] CCN(C(=O)c1cc(F)ccc1-c1cc(C2CN([C@H](CCCN3CCN(C)CC3)C(C)C)C2)cn2c(C)nc(F)c12)C(C)C [Example 312-2]
[B] CCN(C(=O)c1cc(F)ccc1-c1cc(C2CN([C@H](CCCN3CCN(C(C)=O)CC3)C(C)C)C2)cn2c(C)ncc12)C(C)C [Example 311-2]
Query: Which numeric EC50 is bigger, that of A or that of B ? Refer to your chosen entry by its label in the reply.
Result: B
(B: 23 nM, A: 3.9 nM)

[1] COCCN(C)CCC[C@H](C(C)C)N1CC(c2cc(-c3ccc(F)cc3C(=O)N3CCOC[C@H]3C)c3c(F)nc(C)n3c2)C1 [Example 200-1]
[2] CC(=O)N1CCN(CCC[C@H](C(C)C)N2CC(c3cc(-c4ccc(F)cc4C(=O)N4CCOC[C@H]4C)c4c(F)nc(C)n4c3)C2)CC1 [Example 265]
[3] CCN(C(=O)c1cc(F)ccc1-c1cc(C2CN([C@@H](C)C3CCN(C(=O)CO)CC3)C2)cn2c(C)nc(F)c12)C(C)C [Example 284-2]
[4] CC[C@@H](C1CCN(C(C)=O)CC1)N1CC(c2cc(-c3ccc(F)cc3C(=O)N3CCOC[C@H]3C)c3c(F)nc(C)n3c2)C1 [Example 280-1]
Query: # rank by EC50, ascending (min first) List the labels, following the order given in the request.
Result: 3, 1, 4, 2
(3: 5.8 nM, 1: 13 nM, 4: 34 nM, 2: 70 nM)

[1] Cc1nc(F)c2c(-c3ccc(F)cc3C(=O)N3CCOC[C@H]3C)cc(C3CN([C@H](CCCN4CCN(C)CC4)C(C)C)C3)cn12 [Example 275]
[2] CCN1CCN(CCC[C@H](C(C)C)N2CC(c3cc(-c4ccc(F)cc4C(=O)N4CCOC[C@H]4C)c4cnc(C)n4c3)C2)CC1 [Example 324-2]
[3] Cc1nc(F)c2c(-c3ccc(F)cc3C(=O)N3CCOC[C@H]3C)cc(C3CN([C@H](CCCN4CCC[C@H](O)C4)C(C)C)C3)cn12 [Example 293]
[4] COC1CCN(CCCC(C(C)C)N2CC(c3cc(-c4ccc(F)cc4C(=O)N4CCOCC4C)c4c(F)nc(C)n4c3)C2)C1 (stereo not drawn) [Example 201-1]
Query: List from greatest to least EC50. Put the labels in the requested order and write them down.
Result: 3, 1, 2, 4
(3: 31 nM, 1: 16 nM, 2: 9.5 nM, 4: 2.4 nM)

----------
Molecular target: Menin-MLL (Homo sapiens)
Construct: His-Menin (M1-L615 end); purchased BIORTUS BP9210
Sequence (O00255 1-615 isoform O00255-1): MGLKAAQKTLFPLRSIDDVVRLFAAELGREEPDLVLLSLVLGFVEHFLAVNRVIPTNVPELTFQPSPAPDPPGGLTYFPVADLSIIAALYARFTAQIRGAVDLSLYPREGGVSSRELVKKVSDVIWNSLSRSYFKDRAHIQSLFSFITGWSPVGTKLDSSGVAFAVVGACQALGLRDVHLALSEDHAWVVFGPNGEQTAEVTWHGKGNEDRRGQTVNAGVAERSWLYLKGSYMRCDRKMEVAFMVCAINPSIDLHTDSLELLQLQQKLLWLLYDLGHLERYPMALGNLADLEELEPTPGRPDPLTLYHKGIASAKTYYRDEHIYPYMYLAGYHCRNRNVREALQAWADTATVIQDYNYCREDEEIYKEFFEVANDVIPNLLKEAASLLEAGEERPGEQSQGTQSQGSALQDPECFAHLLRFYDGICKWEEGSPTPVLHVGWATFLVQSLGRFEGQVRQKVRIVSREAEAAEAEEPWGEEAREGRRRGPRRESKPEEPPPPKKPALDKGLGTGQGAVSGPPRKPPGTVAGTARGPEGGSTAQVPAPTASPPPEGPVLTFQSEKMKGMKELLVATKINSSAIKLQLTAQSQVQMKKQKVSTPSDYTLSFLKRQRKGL
Experiment: Inhibitory activity against Menin-MLL binding (fluorescence polarization)
Conditions: fluorescence polarization; 150 nM His-Menin, 15 nM FITC-MLL; 25°C for 60 min; read-out: Menin-MLL IC50
endpoint_label: IC50 (nM)

See these solved cases before continuing.
>  <molecule>
COCC(=O)N1CCC(CN2CC(c3cc(-c4ccc(F)cc4C(=O)N4[C@H](C)COC[C@H]4C)c4c(F)nc(C)n4c3)C2)CC1

>  <quantity_unit>
nM

>  <IC50>
26

$$$$
>  <molecule>
CCN(C(=O)c1cc(F)ccc1-c1cc(C2CCN(CC3(O)CCC(NC(=O)OC(C)(C)C)CC3)C2)cn2c(C)ncc12)C(C)C (stereo not drawn)

>  <quantity_unit>
nM

>  <IC50>
14

$$$$

[I] CCN(C(=O)c1cc(F)ccc1-c1cc(N2CCC(NCC3(F)CCC(NS(=O)(=O)CC)CC3)CC2)cn2c(C)ncc12)C(C)C (stereo not drawn)
[II] CC(=O)N1CC2CC(C1)N2CCC[C@H](C(C)C)N1CC(c2cc(-c3ccc(F)cc3C(=O)N3CCOC[C@H]3C)c3cnn(C)c3c2)C1
[III] Cc1nc(F)c2c(-c3ccc(F)cc3C(=O)N3CCC[C@H]3C)cc(C3CN(C(C)C4CCOCC4)C3)cn12 (stereo partly drawn)
[IV] CCN(C(=O)c1cc(F)ccc1-c1cc(OC2CN(C(CCCN3CCN(CCO)CC3)C(C)C)C2)n2c(C)cncc12)C(C)C (stereo not drawn)
Query: Order the 4 molecules from highest to lowest IC50. List the labels according to the requested ordering.
Result: I, II, III, IV
(I: 107 nM, II: 20 nM, III: 12 nM, IV: 3.4 nM)

Each recorded value in this set is attributed to patent EP4782453A1.
